Recorded values, source ChEMBL document CHEMBL5058577.

System: Fibroblast
Assay: Multiplex assay against human fibroblast
Format: toxicity, cell-based
Conditions: 12 h, 1 µM, compound concentration 1 uM, replicate 1
reportedMetric: Total Cell Count

[
  {
    "molecule": "CCCOc1ccc2[nH]cc(C3=CCNCC3)c2n1.Cl",
    "reportedMetric": "Total Cell Count",
    "readoutValue": 143
  },
  {
    "molecule": "CC[C@@H](C)Nc1nc(C)nc2c(-c3ccc(OC)nc3C)c(C)nn12 [PEXACERFONT]",
    "reportedMetric": "Total Cell Count",
    "readoutValue": 147
  },
  {
    "molecule": "CC(C)c1noc(N2CCC(COc3ccc(-c4ccc(S(C)(=O)=O)cc4)nc3)CC2)n1 [GSK-1292263]",
    "reportedMetric": "Total Cell Count",
    "readoutValue": 189
  },
  {
    "molecule": "CCCCCC(O)/C=C/[C@H]1C(=O)CC(O)C1C/C=C\\CCCC(=O)O (some centres undefined)",
    "reportedMetric": "Total Cell Count",
    "readoutValue": 172
  },
  {
    "molecule": "Cl.N=C(N)NC(=O)Cc1c(Cl)cccc1Cl [GUANFACINE HYDROCHLORIDE]",
    "reportedMetric": "Total Cell Count",
    "readoutValue": 167
  },
  {
    "molecule": "N#Cc1cc(F)cc(-c2nc(-c3ccc(F)cn3)no2)c1",
    "reportedMetric": "Total Cell Count",
    "readoutValue": 136
  },
  {
    "molecule": "CN[C@@H](C)C(=O)N[C@H](C(=O)N1CCC[C@H]1C(=O)Nc1snnc1-c1ccccc1)C1CCCCC1 [GDC-0152]",
    "reportedMetric": "Total Cell Count",
    "readoutValue": 127
  },
  {
    "molecule": "O=C(NCCN1CCC(n2c(=O)[nH]c3cc(Cl)ccc32)CC1)c1ccc(F)cc1 [HALOPEMIDE]",
    "reportedMetric": "Total Cell Count",
    "readoutValue": 120
  },
  {
    "molecule": "CC(/C=C1\\SC(=S)N(CCCC(=O)Nc2ccc(C(=O)O)c(O)c2)C1=O)=C\\c1ccccc1",
    "reportedMetric": "Total Cell Count",
    "readoutValue": 206
  }
]
